procedure_details: refractive index (Na D-line) (dimensionless)
test_settings: 323.15 K; 101.33 kPa; Liquid; Standard Abbe refractometry
property: refractive index
Reply with the value as a number alone.

Form: compound = CCCCCCCC[n+]1ccccc1.O=S(=O)([N-]S(=O)(=O)C(F)(F)F)C(F)(F)F [1-octylpyridinium bis((trifluoromethyl)sulfonyl)amide] ; refractive index = 1.43972

Form: compound = CCCCCCCCCCCC[n+]1ccccc1.O=S(=O)([N-]S(=O)(=O)C(F)(F)F)C(F)(F)F [1-dodecylpyridinium bis(trifluoromethylsulfonyl)imide] ; refractive index = 1.44235

Form: compound = CCCC[n+]1ccccc1.O=S(=O)([N-]S(=O)(=O)C(F)(F)F)C(F)(F)F [1-butylpyridinium bis[(trifluoromethyl)sulfonyl]imide] ; refractive index = 1.43631

Form: compound = CCCCCCCCCC[n+]1ccccc1.O=S(=O)([N-]S(=O)(=O)C(F)(F)F)C(F)(F)F [1-decylpyridinium bis(trifluoromethylsulfonyl)imide] ; refractive index = 1.44091
